Origin of values: patent US20240182536A1

Ratio (-BP/+BP), DF-10000 overview
Target: T1, human IL-18 binding protein (human, UniProt O95998 31-194)
T1 sequence (looked up): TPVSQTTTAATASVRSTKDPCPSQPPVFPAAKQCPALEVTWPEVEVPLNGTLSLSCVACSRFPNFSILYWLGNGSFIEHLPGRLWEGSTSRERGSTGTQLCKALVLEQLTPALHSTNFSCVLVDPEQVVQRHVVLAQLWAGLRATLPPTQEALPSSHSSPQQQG
Experiment: cell-based or functional assay
Keep it simple and answer with nothing but the number.

Example cases with answers are listed next.
INSERT INTO measurements (binder, numeric_readout) VALUES
  ('yeast display IL-18 variant K53G, S55I (ligand) YFGKLESKLSVIRNLNDQVLFIDQGNRPLFEDMTDSDMRDNAPRTIFIISMYGDIQPRGMAVTISVKSEKISTLSSENKIISFKEMNPPDNIKDTKSDIIFFQRSVPGHDNKMQFESSSYEGYFLASEKERDLFKLILKKEDELGDRSIMFTVQNED', 0.77),
  ('yeast display IL-18 variant T34I, S36T, D40A, N41M, K53T, S55Y (ligand) YFGKLESKLSVIRNLNDQVLFIDQGNRPLFEDMIDTDMRAMAPRTIFIISMYTDYQPRGMAVTISVKSEKISTLSSENKIISFKEMNPPDNIKDTKSDIIFFQRSVPGHDNKMQFESSSYEGYFLASEKERDLFKLILKKEDELGDRSIMFTVQNED', 1.03);

[ask] Check the records and state Ratio (-BP/+BP), DF-10000 for yeast display IL-18 variant K53S, S55G (ligand) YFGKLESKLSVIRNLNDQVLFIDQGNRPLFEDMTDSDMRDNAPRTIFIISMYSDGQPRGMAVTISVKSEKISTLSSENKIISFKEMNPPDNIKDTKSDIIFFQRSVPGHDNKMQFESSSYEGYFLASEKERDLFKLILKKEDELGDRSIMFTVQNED
[reply] 0.93
